system: human monoclonal antibody CRJA; assay type: binding
// reported Binding of CRJA to linear peptide (PEPSCAN-ELISA signal) for each item listed
assayMetric: Binding of CRJA to linear peptide (PEPSCAN-ELISA signal)

SIMTTKSVSFRRLSH
92
DEGCTNLSGFSYMEL
54
WSPIDIHHLSCPNNL
83
RYEESLHNPYPDYRW
96
LMDGTWVAMQTSNET
102
AYTIFNKTLMEADAH
98
FTNSRGKRASKGSET
90
ELLESSVIPLVHPLA
85
QLVNLHDFRSDEIEH
89
NPYPDYRWLRTVKTT
106
TNSRGKRASKGSETC
89
YPDYRWLRTVKTTKE
88
YNWKMAGDPRYEESL
110
SGVAVSSTYCSTNHD
84
VGGRCHPHVNGVFFN
92
NGVFFNGIILGPDGN
62
RVFPSGKCSGVAVSS
58
LVPGFGKAYTIFNKT
83
DIFTNSRGKRASKGS
114
RKLVPGFGKAYTIFN
48
LVHPLADPSTVFKDG
106
PRLGMSCDIFTNSRG
108
PENPRLGMSCDIFTN
94
LLQQHMELLESSVIP
80
FGKAYTIFNKTLMEA
85
PIDIHHLSCPNNLVV
39
PDGNVLIPEMQSSLL
99
DQLVNLHDFRSDEIE
88
YRWLRTVKTTKESLV
68
MELLESSVIPLVHPL
83
EELVRKREECLDALE
118
REECLDALESIMTTK
94
YTNFVGYVTTTFKRK
76
FRSDEIEHLVVEELV
101
IFNKTLMEADAHYKS
87
AIKMNGFTCTGVVTE
93
PDYRWLRTVKTTKES
83
LRLMDGTWVAMQTSN
96
